Every entry's value here was drawn from PubChem BioAssay AID588493.

# test_system: 26S proteasome non-ATPase regulatory subunit 14 (Homo sapiens) (UniProt O00487)
# Sequence (O00487 whole entry, looked up): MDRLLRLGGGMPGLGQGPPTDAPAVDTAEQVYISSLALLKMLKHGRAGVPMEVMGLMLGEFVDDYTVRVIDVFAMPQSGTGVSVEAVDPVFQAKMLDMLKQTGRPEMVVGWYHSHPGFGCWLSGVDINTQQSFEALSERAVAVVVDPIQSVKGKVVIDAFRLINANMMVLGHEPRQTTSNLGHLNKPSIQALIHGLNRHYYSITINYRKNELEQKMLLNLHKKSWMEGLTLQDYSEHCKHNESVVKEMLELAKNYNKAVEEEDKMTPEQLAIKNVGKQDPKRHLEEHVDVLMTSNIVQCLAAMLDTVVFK
# assay_summary: inhibition of 26S proteasome subunit Rpn11 – biochemical, fluorescence polarization, uHTS, primary screen (AID 588493)
# condition_notes: human 26S proteasome, Ub4-pepOG fluorescence polarization; at 20 µM; hits give high values; 20S core pre-blocked with epoxomicin
In all, about 360,000 compounds went through this assay and about 2,100 (0.58%) were called active. The sample as a whole holds a higher share of actives than the screen did.
measured_quantity: inhibition (%)
Please reply with the bare figure in % and do not write the unit itself.

Give reported inhibition value for Fc1ccc(CNc2nc3ccccc3n3nnnc23)cc1
-38.7

Give reported inhibition value for Cc1ccc(S(=O)(=O)N2C[C@H]3C(=O)C[C@@H](c4cccc5ccccc45)N(S(=O)(=O)c4ccc(C)cc4)[C@H]3C[C@H]2c2ccc(Cl)cc2)cc1
-1.4

Give reported inhibition value for Cc1cc(OCC(=O)NCC(O)c2ccccc2)c2c(C)c(C)c(=O)oc2c1 (stereo unspecified)
-2.1

Give reported inhibition value for Cc1ccc(NC(=O)COc2ccc(/C=N\NC(=O)c3cccnc3)cc2)cc1C
91

Give reported inhibition value for COc1ccc(CCNC2=C(Cl)C(=O)N(Cc3ccccc3)C2=O)cc1OC
-4.9

Give reported inhibition value for O=C(NCc1ccc(Cl)cc1)C1CCN(S(=O)(=O)c2cccs2)CC1
4.3

Give reported inhibition value for CCC(=O)N(C)C(c1ccccc1Cl)c1nnnn1-c1c(C)cccc1C (stereo unspecified)
2.8

Give reported inhibition value for O=C(NCc1ccccn1)C1CCN(S(=O)(=O)c2ccc(Br)cc2)CC1
-11.1

Give reported inhibition value for CCn1cc(C(=O)OCC(=O)Nc2cccc(C)c2)c(=O)c2ccc(C)nc21
-1.5

Give reported inhibition value for CC(C)NC(=O)NC(=O)COC(=O)c1ccc(NC(=O)CC#N)cc1
-1.1

Give reported inhibition value for COc1cccc2c1OCC1COc3c(c(=O)n(C)c(=O)n3C)C21 (stereo unspecified)
-1.5

Give reported inhibition value for CCOc1ccc(NC(=O)c2ccc(NC(=O)COC(=O)c3ccc(NC(=O)CC#N)cc3)cc2)cc1
128

Give reported inhibition value for O=C(N1CCOCC1)N1CCOCC1
-1.2

Give reported inhibition value for Cc1cc(OCC(=O)Nc2nccs2)c2c(C)c(C)c(=O)oc2c1
61.1

Give reported inhibition value for COc1cccc(CN2C(=O)CCC2(C)C(=O)NC2CCCCCC2)c1 (stereo unspecified)
3.5

Give reported inhibition value for Cc1ccc(S(=O)(=O)N[C@@H](Cc2ccccc2)C(=O)N2CCC(C(=O)N[C@H](C(=O)O)C(C)O)CC2)cc1 (stereo partly specified)
-7.8

---

# test_system: 26S proteasome non-ATPase regulatory subunit 14 (Homo sapiens)
# assay_summary: inhibition of 26S proteasome subunit Rpn11 – biochemical, fluorescence polarization, uHTS, primary screen (AID 588493)
# condition_notes: human 26S proteasome, Ub4-pepOG fluorescence polarization; at 20 µM; 20S core pre-blocked with epoxomicin
Screen size: about 360,000 compounds; about 2,100 (0.58%) were called active.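 How the source made its calls: active means inhibition at 20 µM, scaled to each plate's controls, above about 33% (limit read from the data); inactive means the rest.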 Only a selection was taken, and actives are over-represented in it overall.
Choose one outcome from this list and give only that: YES (active), NO (inactive)

Consider the worked cases shown below.
molecule | category
CC(C)CC(NC(=O)C1CCCN1C(=O)[C@@H](C)NC(=O)OCc1ccccc1)C(=O)NCC(N)=O (stereo not given in full) | NO
O=[N+]([O-])c1cc(S(=O)(=O)Nc2cccc(Cl)c2)ccc1N=Nc1c(O)[nH]c2ccccc12 | NO
Cc1ccc(NC(=O)c2c(NC(=O)CCC(=O)O)sc3c2CCCCC3)cc1 | YES
COC(=O)c1c(NC(=O)CCN2CCOCC2)sc2c1CCCC2 | NO

Okay, now this molecule:
Which outcome was assigned to Cc1ccc(N=Cc2c(O)n(-c3nccs3)c(=O)c3ccccc23)c(C)c1 in this test?
NO

---

Entries annotated with measured inhibition
# test_system: 26S proteasome non-ATPase regulatory subunit 14 (Homo sapiens) (UniProt O00487)
# assay_summary: inhibition of 26S proteasome subunit Rpn11 – biochemical, fluorescence polarization, uHTS, primary screen (AID 588493)
# condition_notes: human 26S proteasome, Ub4-pepOG fluorescence polarization; at 20 µM; hits give high values; 20S core pre-blocked with epoxomicin
Hit rate of the full screen: of about 360,000 compounds, about 2,100 (0.58%) were called active. The entries come from a sample that favours actives as a whole.
Please reply with the bare figure in % and do not write the unit itself.

Look over these answered cases.
molecule | endpoint_value
CCN1CCN(c2cc3nc(C)n(Cc4ccccc4)c(=O)c3cc2NC(=O)c2ccccc2F)CC1 | 47.3
O=C(CNC(=O)c1cccnc1)N/N=C/c1cc(Br)c(O)c(Br)c1 | -14.1
CCC(=O)Nc1ccc2nc(C)n(Cc3ccccc3Cl)c(=O)c2c1 | -7.7
Cc1nc2ccc(C(=O)N3CCSCC3)cc2s1 | 93.1
CCCCN(C(=O)C1CCC1)c1c(N)n(Cc2ccccc2)c(=O)[nH]c1=O | -10.9
COCCCNC(=O)Cn1c(=O)n(Cc2ccccc2Cl)c(=O)c2cc(OC)c(OC)cc21 | -0.4
Cc1cccc(C(=O)N2CCC(c3nc4ccccc4s3)CC2)c1 | -7.6
CC(C)CC(O)C1CCN(C(=O)CCc2nnc(-c3ccc4c(c3)OCO4)o2)CC1 (centres undefined) | -1.9

Now look at this one.
Give reported inhibition value for COc1ccc(S(=O)(=O)N(C)C[C@H]2OCc3cnnn3CCCC(=O)N([C@H](C)CO)C[C@H]2C)cc1
-6.2

---

# test_system: 26S proteasome non-ATPase regulatory subunit 14 (Homo sapiens) (UniProt O00487)
# assay_summary: inhibition of 26S proteasome subunit Rpn11 – biochemical, fluorescence polarization, uHTS, primary screen (AID 588493)
# condition_notes: human 26S proteasome, Ub4-pepOG fluorescence polarization; at 20 µM; 20S core pre-blocked with epoxomicin
Among all 360,000 compounds or so, about 2,100 (0.58%) were called active.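 Rule for the calls: active = inhibition at 20 µM, scaled to each plate's controls, above about 33% (limit read from the data); inactive = the rest.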 The entries come from a sample that favours actives as a whole.
Choose one outcome from this list and give only that: y for active, n for inactive

given_smiles | category
O=C(CSc1nc2ccccc2c(=O)[nH]1)Nc1nc(-c2ccc(Br)cc2)cs1 | y

Which outcome was assigned to COc1ccc(NC(=O)Cn2nnc(C(=O)NCCc3ccc(OC)c(OC)c3)c2N)cc1 in this test?
n

Which outcome was assigned to COc1cccc(CNC(=O)c2nnn(CC(=O)Nc3cc(C)ccc3C)c2N)c1 in this test?
n

Which outcome was assigned to CC1(C)NC(=O)N(CCCCSc2ccc(Cl)cc2)C1=O in this test?
n

Which outcome was assigned to COc1ccc(CNC(=O)c2nnn(CC(=O)Nc3cc(C)cc(C)c3)c2N)cc1 in this test?
y

---

Entries annotated with measured inhibition
# test_system: 26S proteasome non-ATPase regulatory subunit 14 (Homo sapiens) (UniProt O00487)
# assay_summary: inhibition of 26S proteasome subunit Rpn11 – biochemical, fluorescence polarization, uHTS, primary screen (AID 588493)
# condition_notes: human 26S proteasome, Ub4-pepOG fluorescence polarization; at 20 µM; hits give high values; 20S core pre-blocked with epoxomicin
The campaign covered roughly 360,000 compounds. About 2,100 (0.58%) were called active. The sample as a whole holds a higher share of actives than the screen did.

Look over these answered cases.
molecule | test_system | inhibition
Cc1cccc(NC(=O)CSc2nnc(CCNC(=O)OC(C)(C)C)o2)c1C | 26S proteasome non-ATPase regulatory subunit 14 (Homo sapiens) (UniProt O00487) | -2.3% (inactive)
COc1ccc(CC(N)c2csc(NC(=O)Nc3ccc(C(C)C)cc3)n2)cc1 (centres undefined) | 26S proteasome non-ATPase regulatory subunit 14 (Homo sapiens) (UniProt O00487) | 2.4% (inactive)
Cc1ccc(Nc2nc(Cl)c(C=O)s2)cc1 | 26S proteasome non-ATPase regulatory subunit 14 (Homo sapiens) (UniProt O00487) | 108% (active)
N#C/C=C1\Sc2ccccc2C(=O)N1CC(=O)N1CCN(S(=O)(=O)c2ccccc2)CC1 | 26S proteasome non-ATPase regulatory subunit 14 (Homo sapiens) (UniProt O00487) | 5.4% (inactive)
CC(=O)c1ccc(NC(=S)N(Cc2ccccc2)C(C)C2CC2)cc1 (centres undefined) | 26S proteasome non-ATPase regulatory subunit 14 (Homo sapiens) (UniProt O00487) | 8.8% (inactive)

Give reported inhibition value for Cc1ccc(NC(=O)CN2CCc3ccccc3C2)cc1C
7.2% (inactive)

Give reported inhibition value for CCOc1ccc(-n2c(O)c(/C=N/Nc3nnc(C)c(=O)[nH]3)c3ccccc3c2=O)cc1
36.2% (active)

Give reported inhibition value for O=C(COc1cccc(F)c1)Oc1ccc(C(=O)c2ccccc2)cc1
43% (active)

Give reported inhibition value for Cc1nnc(N/N=C/c2ccccn2)[nH]c1=O
6.9% (inactive)

Give reported inhibition value for Cc1ccc(Nc2nnc(SC(C)C(=O)NC3CC3)s2)cc1 (centres undefined)
4.1% (inactive)

Give reported inhibition value for COc1ccc(CN2[C@@H](CC(=O)O)c3cc(F)ccc3S2(=O)=O)cc1
-5.9% (inactive)
